Data origin: ChEMBL document CHEMBL1158719

tested on: SK-OV-3; test: Cytotoxicity against human SKOV3 cells after 48 hrs by SRB assay; assay type: functional, cell-based; conditions: SK-OV-3, 48 h
measured attribute: pIC50
Give bare numbers, as −log10 of the molar value.

smiles data	pIC50
C=CC(C)(C)c1c(O)cc2oc3c(CC=C(C)C)c(O)c(O)cc3c(=O)c2c1O	5.33
C=CC(C)(C)c1c(O)c(CC=C(C)C)c2oc3cc(O)c(O)cc3c(=O)c2c1O	5.37
CC(=O)O[C@H]1C(=O)[C@@]2(C)[C@H]([C@H](OC(=O)c3ccccc3)[C@]3(O)C[C@H](OC(=O)[C@H](O)[C@@H](NC(=O)c4ccccc4)c4ccccc4)C(C)=C1C3(C)C)[C@]1(OC(C)=O)CO[C@@H]1C[C@@H]2O	5.87

# context switch: different molecule, same pIC50
Q: Input `C=CC(C)(C)c1c(O)cc(O)c2c(=O)c3c(CC=C(C)C)c(O)c(O)cc3oc12` , output reported pIC50.
Result: 5.15
